Hey, just so you know, these numbers are from PubChem BioAssay AID1845199.

- System: 556581-035-R-J1 tumor spheroid viability, % test/control
- assaySummary: Anticancer human tumor 556581-035-R-J1 patient-derived ovarian carcinoma cell line growth inhibition
- studyConditions: second compound 0.0949 µM; first compound 3 µM; stronger effect = lower value; spheroids with HUVEC and MSC
measuredProperty: viability, T/C (%)
The figure you give is taken to be in %; do not add the unit.

CNCc1ccc(-c2cc(-c3nc(-c4ccc(S(=O)(=O)C(C)C)cc4)cnc3N)on2)cc1 + CC[C@@]1(O)C(=O)OCc2c1cc1n(c2=O)Cc2cc3c(CN(C)C)c(O)ccc3nc2-1 = 1.58
Cc1sc2c(c1C)C(c1ccc(Cl)cc1)=NC(CC(=O)Nc1ccc(O)cc1)c1nnc(C)n1-2 (centres undefined) + CC[C@@]1(O)C(=O)OCc2c1cc1n(c2=O)Cc2cc3c(CN(C)C)c(O)ccc3nc2-1 = 41.4

Lab request: please report viability, T/C under test system 556581-035-R-J1 tumor spheroid viability, % test/control for O=C(c1cc(Cc2n[nH]c(=O)c3ccccc23)ccc1F)N1CCN(C(=O)C2CC2)CC1 + CC[C@@]1(O)C(=O)OCc2c1cc1n(c2=O)Cc2cc3c(CN(C)C)c(O)ccc3nc2-1 53.4

Lab request: please report viability, T/C under test system 556581-035-R-J1 tumor spheroid viability, % test/control for Cn1ncnc1[C@H]1c2n[nH]c(=O)c3cc(F)cc(c23)N[C@@H]1c1ccc(F)cc1 + CC[C@@]1(O)C(=O)OCc2c1cc1n(c2=O)Cc2cc3c(CN(C)C)c(O)ccc3nc2-1 19.2

----------
- Test system: 556581-035-R-J1 tumor spheroid viability, % test/control
- assaySummary: Anticancer human tumor 556581-035-R-J1 cell line growth inhibition;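 note: spheroids exposed to compounds for 7 days before viability read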
- studyConditions: second compound 0.00949 µM; first compound 1 µM; stronger effect = lower value; spheroids with HUVEC and MSC
Each item that follows carries a reported viability, T/C.

Cc1cc(C)c(CNC(=O)c2cc(-c3ccc(CN4CCOCC4)cc3)cc3c2cnn3C2CCCC2)c(=O)[nH]1 + CC[C@@]1(O)C(=O)OCc2c1cc1n(c2=O)Cc2cc3c(CN(C)C)c(O)ccc3nc2-1 = 72.5%
CC(C)n1c(=O)n(C)c2cnc3cc(F)c(-c4ccc(OCCCN5CCCCC5)nc4)cc3c21 + CC[C@@]1(O)C(=O)OCc2c1cc1n(c2=O)Cc2cc3c(CN(C)C)c(O)ccc3nc2-1 = 77%

Here's the next entry for you.
Lab request: please report viability, T/C under test system 556581-035-R-J1 tumor spheroid viability, % test/control for [2H]c1nc(C)nc([2H])c1-c1cc(NC[C@@H](C)c2cccc3c(C(=O)NC)ccnc23)ncn1 + CC[C@@]1(O)C(=O)OCc2c1cc1n(c2=O)Cc2cc3c(CN(C)C)c(O)ccc3nc2-1 89.8%

----------
Each item that follows carries a reported pIC50.
- Tested on: 556581-035-R-J1 tumor spheroid viability, % test/control
- assaySummary: Anticancer human tumor 556581-035-R-J1 cell line growth inhibition;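 note: spheroids exposed to compounds for 7 days before viability read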
- studyConditions: curve of first compound; second compound 10 µM; spheroids with HUVEC and MSC
pIC50: −log10 of the molar value.

Known pIC50 results, listed for orientation:
CNCc1ccc(-c2cc(-c3nc(-c4ccc(S(=O)(=O)C(C)C)cc4)cnc3N)on2)cc1 + Cn1nnc2c(C(N)=O)ncn2c1=O = 5.86
Cc1cc(C)c(CNC(=O)c2cc(-c3ccc(CN4CCOCC4)cc3)cc3c2cnn3C2CCCC2)c(=O)[nH]1 + Cn1nnc2c(C(N)=O)ncn2c1=O = < 5.00
COc1ccc([C@@H](O)c2cc(-c3ncnc4cc(N5CCOCC5)ccc34)c(F)cc2Cl)nn1 + Cn1nnc2c(C(N)=O)ncn2c1=O = 5.51

Here's the next entry for you.
Record request: pIC50 value, item [2H]c1nc(C)nc([2H])c1-c1cc(NC[C@@H](C)c2cccc3c(C(=O)NC)ccnc23)ncn1 + Cn1nnc2c(C(N)=O)ncn2c1=O < 5.00
